- experimentalSystem: menin protein (Homo sapiens (Human), UniProt O00255)
- Sequence (O00255 whole entry): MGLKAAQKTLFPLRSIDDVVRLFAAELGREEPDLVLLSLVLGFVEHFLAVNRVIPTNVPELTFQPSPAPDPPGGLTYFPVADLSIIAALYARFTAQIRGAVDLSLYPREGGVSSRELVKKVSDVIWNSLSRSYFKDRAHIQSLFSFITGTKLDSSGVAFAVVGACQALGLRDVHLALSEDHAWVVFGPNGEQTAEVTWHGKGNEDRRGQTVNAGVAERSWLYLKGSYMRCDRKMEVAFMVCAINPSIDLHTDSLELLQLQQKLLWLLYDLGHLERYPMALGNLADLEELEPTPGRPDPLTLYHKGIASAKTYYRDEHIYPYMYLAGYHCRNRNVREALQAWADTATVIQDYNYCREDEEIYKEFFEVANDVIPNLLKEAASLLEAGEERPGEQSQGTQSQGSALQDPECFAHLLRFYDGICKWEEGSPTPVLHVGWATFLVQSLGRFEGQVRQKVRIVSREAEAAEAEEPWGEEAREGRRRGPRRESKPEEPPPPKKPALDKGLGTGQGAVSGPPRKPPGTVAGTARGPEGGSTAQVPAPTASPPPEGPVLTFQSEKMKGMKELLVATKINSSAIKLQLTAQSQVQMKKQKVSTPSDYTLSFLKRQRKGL
- assayComment: biochemical
- Assay type: binding
- statedConditions: FP competitive binding; menin protein 4 nM, FAM-MM2 probe 2 nM; read-out: Menin Binding Affinity IC50
Binarize IC50 at 200 nM; below is YES, at or above is NO.

The examples below pair each entry with its known result.
# molecule, experimentalSystem, class
measured = [
    ("N#Cc1ccc(N2CCC(CN3CCC(C4(C5CCCC5)NCCc5ccccc54)CC3)C2)cc1 (stereo not shown)", "menin protein (Homo sapiens (Human), UniProt O00255)", "YES"),
    ("N#Cc1ccc(NCCCN2CCC(C3(C4CCCC4)NCCc4ccccc43)CC2)cc1 (stereo not shown)", "menin protein (Homo sapiens (Human), UniProt O00255)", "NO"),
    ("CCN1Cc2ccccc2C(C2CCCC2)(C2CCN(CC3CN(c4ccc(S(=O)(=O)C5CC5)cc4Cl)C3)CC2)C1 (stereo not shown)", "menin protein (Homo sapiens (Human), UniProt O00255)", "YES"),
    ("N#CC(c1ccccc1)(C1CCCC1)C1CCN(CCCOc2ccc(S(=O)(=O)c3ccccc3)cc2)CC1 (stereo not shown)", "menin protein (Homo sapiens (Human), UniProt O00255)", "NO"),
]

Identify whether the molecule CC(C)C(=O)N1CCCCC1C1(C2CCN(CCCOc3ccc(C#N)cc3)CC2)CN(C)Cc2ccccc21 (stereo not shown) [compound 300] records IC50 below 200 nM.
NO

Then what about the molecule CNC(=O)O[C@H]1CCC[C@@H]1C(Cn1ccnc1)(c1ccccc1)C1CCN(CC2CN(c3ccc(S(=O)(=O)c4ccc(C(=O)O)cc4)cc3)C2)CC1 (mixture of isomers) [compound 362] ?
YES

Cool, now CO[C@H]1CCC[C@@H]1C1(C2CCN(CCCOc3ccc(C(=O)O)cc3)CC2)CNCc2ccccc21 (mixture of isomers)
NO

---

- assayComment: Cell growth inhibition, CellTiter-Glo Luminescent Cell Viability Assay
- Format: cell-based
- statedConditions: MOLM-13, 96 h, read-out: Cell Growth Inhibition IC50 (μM) MOLM13, MOLM13 cells, 4 days, CellTiter-Glo
# label 1 = IC50 below 2 µM (exclusive); label 0 = IC50 at/above 2 µM

Check out these entries, answers already filled in.
# molecule, class
records = [
    ("COC(=O)N[C@H]1CCC[C@@H]1C(C#N)(c1ccccc1)C1CCN(CC2CN(c3ccc(S(=O)(=O)c4ccc(C(=O)O)cc4)cc3)C2)CC1 (mixture of isomers)", "label 0"),
    ("CNC(=O)O[C@@H]1CCC[C@H]1[C@@](C#N)(c1ccccc1)C1CCN(CC2CN(c3ccc(S(=O)(=O)c4ccncc4)cc3)C2)CC1 (mixture of isomers)", "label 0"),
    ("COC(=O)N[C@H]1CCC[C@@H]1[C@](C#N)(c1ccccc1)C1CCN(CC2CN(c3ccc(S(=O)(=O)C(F)(F)F)cc3)C2)CC1", "label 1"),
    ("CNC(=O)O[C@H]1CCC[C@@H]1C(C#N)(c1ccccc1)C1CCN(CC2CN(c3ccc(C(F)(F)F)cc3)C2)CC1 (mixture of isomers)", "label 0"),
    ("CC(=O)N[C@H]1CCC[C@@H]1C1(C2CCN(CC3CN(c4ccc(S(=O)(=O)c5ccncc5)cc4)C3)CC2)CN(C)Cc2ccccc21 (mixture of isomers)", "label 1"),
    ("N#CC(c1ccccc1)(C1CCN(CC2CN(c3ccc(S(=O)(=O)c4ccncc4)cc3)C2)CC1)[C@H]1CCC[C@@H]1OC(N)=O (mixture of isomers)", "label 1"),
    ("CNC(=O)O[C@H]1CCC[C@@H]1C(C#N)(c1ccccc1)C1CCN(CC2CN(c3ccc(S(=O)(=O)c4ccccc4)cc3)C2)CC1 (mixture of isomers)", "label 1"),
    ("CNC(=O)O[C@H]1CCC[C@@H]1C(C#N)(c1ccccc1)C1CCN(C2CCN(c3ccc(S(=O)(=O)c4ccccc4)cc3)CC2)CC1 (mixture of isomers)", "label 0"),
]

# check: IC50 < 2 µM for COC(=O)N[C@H]1CCC[C@@H]1C(C#N)(c1ccccc1)C1CCN(CC2CN(c3ccc(S(=O)(=O)C4CC4)cc3Cl)C2)CC1 (mixture of isomers)
label 0

Record: CNC(=O)O[C@H]1CCC[C@@H]1C(C#N)(c1ccccc1)C1CCN(CCCOc2ccc(C#N)cc2)CC1 (mixture of isomers)
label 1

Quick one: CCC(=O)O[C@H]1CCC[C@@H]1C(C#N)(c1ccccc1)C1CCN(CC2CN(c3ccc(S(=O)(=O)c4ccncc4)cc3)C2)CC1 (mixture of isomers)
label 1

---

Would you kindly list IC50 for each of these compounds?
- experimentalSystem: menin protein (Homo sapiens (Human))
- assayComment: biochemical
- Type: binding
- statedConditions: FP competitive binding; menin protein 4 nM, FAM-MM2 probe 2 nM; read-out: Menin Binding Affinity IC50

# compound, IC50
measured = [
    ("c1ccc2c(c1)CCNC2(C1CCCC1)C1CCNCC1 (stereo not shown) [compound 72]", "610 µM"),
    ("COC(=O)N[C@H]1CCC[C@@H]1C(C#N)(c1ccccc1)C1CCN(CC2CN(c3ccc(S(=O)(=O)c4ccc(C(N)=O)cc4)cc3)C2)CC1 (mixture of isomers) [compound 399]", "0.007 µM"),
    ("N#Cc1ccc(N2CCC(N3CCC(C4(C5CCCC5)NCCc5ccccc54)CC3)CC2)cc1 (stereo not shown) [compound 55]", "0.669 µM"),
    ("N#Cc1ccc(OCCCN2CCC(C(C#N)(Cc3ccncc3)c3ccccc3)CC2)cc1 (stereo not shown) [compound 344]", "180 µM"),
    ("O=S(=O)(c1ccncc1)c1ccc(N2CC(CN3CCC(C4(C5CCCC5)NCCc5ccccc54)CC3)C2)cc1 (stereo not shown) [compound 151]", "0.015 µM"),
    ("CC(=O)N1CCC[C@H]1C(C#N)(c1ccccc1)C1CCN(CCCOc2ccc(C#N)cc2)CC1 (stereo partly shown) [compound 330]", "111 µM"),
]

Item under review: CO[C@@H]1CCC[C@H]1C1(C2CCN(CCCOc3ccc(C#N)cc3)CC2)CN(C)Cc2ccccc21 (mixture of isomers) [compound 326] . Reported IC50?
2.7 µM

---

- experimentalSystem: menin protein (Homo sapiens (Human), UniProt O00255)
- assayComment: biochemical
- Format: binding
- statedConditions: FP competitive binding; menin protein 4 nM, FAM-MM2 probe 2 nM; read-out: Menin Binding Affinity IC50
experimentalReadout: pIC50
Give bare numbers, as −log10 of the molar value.

# compound, experimentalSystem, pIC50
records = [
    ("COC(=O)[C@H]1CCC[C@@H]1C(C#N)(c1ccccc1)C1CCN(CC2CN(c3ccc(S(=O)(=O)C4CC4)cc3)C2)CC1 (mixture of isomers) [compound 332]", "menin protein (Homo sapiens (Human), UniProt O00255)", 6.58),
]

Hi there! I need pIC50 for each item below, if you can.
1. O=S(=O)(CC1CCC1)c1ccc(N2CC(CN3CCC(C4(C5CCCC5)NCCc5ccccc54)CC3)C2)cc1 (stereo not shown) [compound 86]
2. CCN1Cc2ccccc2C(C2CCCC2)(C2CCN(CC3CN(c4ccc(S(=O)(=O)C5CC5)cc4)C3)C(C)C2)C1 (stereo not shown) [compound 95]
3. CC(=O)O[C@H]1CCC[C@@H]1C(C#N)(c1cccc(C(F)(F)F)c1)C1CCN(CC2CN(c3ccc(C#N)cc3)C2)CC1 (mixture of isomers) [compound 417]
4. CN1CCc2ccccc2C1(C1CCCC1)C1CCN(CCCOc2ccc(C#N)cc2)CC1 (stereo not shown) [compound 28]
5. COC(=O)N[C@H]1CCC[C@@H]1C(C#N)(c1ccccc1)C1CCN(CC2(F)CN(c3ccc(S(=O)(=O)c4cnn(C)c4)cc3)C2)CC1 (mixture of isomers) [compound 397]
6. CC(=O)N[C@H]1CCC[C@@H]1C(C#N)(c1ccccc1)C1CCN(CC2CN(c3ccc(C#N)cc3)C2)CC1 (mixture of isomers) [compound 382]

1. 7.26
2. 7.62
3. 5.79
4. 6.42
5. 6.73
6. 6.99

Hi there! I need pIC50 for each item below, if you can.
1. CNC(=O)O[C@@H]1CCC[C@H]1C(Cn1cccc1)(c1ccccc1)C1CCN(CC2CN(c3ccc(S(=O)(=O)c4ccccc4)cc3)C2)CC1 (mixture of isomers) [compound 358]
2. CC(=O)N1CCCC(C(C#N)(c2ccccc2)C2CCN(CCCOc3ccc(C#N)cc3)CC2)C1 (stereo not shown) [compound 307]
3. CNC(=O)O[C@H]1CCC[C@@H]1C(C#N)(c1ccccc1)C1CCN(C2CCN(c3ccc(S(=O)(=O)c4ccccc4)cc3)CC2)CC1 (mixture of isomers) [compound 234]
4. N#Cc1ccc(OC2CC(N3CCC(C4(C5CCCC5)NCCc5ccccc54)CC3)C2)cc1 (single isomer, unassigned) [compound 131]

1. 6.66
2. 4.51
3. 7.30
4. 5.96

Quick batch: pIC50 for everything below.
1. CNC(=O)O[C@H]1CCC[C@@H]1C(Cn1ccnc1)(c1ccccc1)C1CCN(CC2CN(c3ccc(C(F)(F)F)cc3)C2)CC1 (mixture of isomers) [compound 421]
2. O=S(=O)(c1ccc(N2CC(F)(CN3CCC(C4(C5CCCC5)NCCc5ccccc54)CC3)C2)cc1)C1CC1 (stereo not shown) [compound 140]

1: 8.40; 2: 6.98
